target: Fatty acid-binding protein, adipocyte (Homo sapiens, UniProt P15090)
Sequence (P15090 whole entry): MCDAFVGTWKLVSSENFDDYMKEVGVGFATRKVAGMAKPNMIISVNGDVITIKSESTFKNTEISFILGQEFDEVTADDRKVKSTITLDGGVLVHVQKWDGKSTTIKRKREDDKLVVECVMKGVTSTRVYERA
protocolText: Inhibition of human A-FABP by fluorescence polarization assay
resultType: IC50 (nM)

Below, each entry is followed by its recorded IC50 result.
Problem: Enter reported IC50 observed with Fatty acid-binding protein, adipocyte (Homo sapiens, UniProt P15090) for "O=C(O)c1cccc2c3c(n(Cc4ccccc4)c12)CCC3"
Result: 970

Problem: Enter reported IC50 observed with Fatty acid-binding protein, adipocyte (Homo sapiens, UniProt P15090) for "O=C(O)c1cccc2c3c(n(Cc4ccc(F)cc4)c12)CCCCC3"
Result: 780

Problem: Enter reported IC50 observed with Fatty acid-binding protein, adipocyte (Homo sapiens, UniProt P15090) for "O=C(O)c1cccc2c3c(n(Cc4cccc(F)c4)c12)CCCCC3"
Result: 720

(P) O=C(O)CC/C=C\c1nn(-c2ccccc2)c2c1CCC2
(Q) CCCn1c2c(c3cccc(C(=O)O)c31)CCCC2
Problem: Between P and Q , which one shows the larger IC50 value? Please reply using the label of the selected record.
Result: P
(P: 1100 nM, Q: 730 nM)

Data credit: ChEMBL document CHEMBL1153289
